Collected Ka values appear next to each entry.
Assay: SPR (Biacore) on chip coated with BSA conjugated to COMPOUND 2
Type: binding
Details: 37° C.; Fab over COMPOUND 2-BSA surface; apparent
Endpoint: Ka (M⁻¹ s⁻¹)

- 26D5-GVR-H-Fab-LONG: antibody Fab fragment; VH SEQ ID NO: 81, VL SEQ ID NO: 98; sequence in Table 3 (antibody, V domains shown) VH: EVQLVESGGGLIQPGGSLRLSCAASGFTVSRNYMSWVRQAPGKGLEWVSFIYSGGRTYYADSVKGRFTISRDNSKNTLYLQMNSLRAEDTAVYYCARGGFGGGDYWGQGTLVTVSS VL: DIQMTQSPSSVSASVGDRVTITCRASQGISSWLAWYQHKPGKAPKLLIYAASSLQSGVPSRFSGSGSGTDFTLTISSLQPEDFATYYCQQANSFPLTFGGGTKVEIK: 280000
- 24H1-GQTV-Fab-LONG: antibody Fab fragment; VH SEQ ID NO: 80, VL SEQ ID NO: 98; sequence in Table 3 (antibody, V domains shown) VH: EVQLVESGGGLIQPGGSLRLSCAASGFTVSRNYMSWVRQAPGKGLEWVSFIYSGGSTYYADSVKGRFTISRDNSKNTLYLQMNSLRAEDTAVYYCARGGFGGGDYWGQGTLVTVSS VL: DIQMTQSPSSVSASVGDRVTITCRASQGISSWLAWYQHKPGKAPKLLIYAASSLQSGVPSRFSGSGSGTDFTLTISSLQPEDFATYYCQQANSFPLTFGGGTKVEIK: 790000
- 26D5-295-C08-Fab-LONG: antibody Fab fragment; VH SEQ ID NO: 62, VL SEQ ID NO: 88; sequence in Table 3 (antibody, V domains shown) VH: EVQLVESGGGLIQPGGSLRLSCAASGFQVSSNAMSWVRQAPGKGLEWVSFIYPGGRTYYADSVKGRFTISRDNSKNTLYLQMNSLRAEDTAVYYCARGGFGGGDYWGQGTLVTVSS VL: DIQMTQSPSSVSASVGDRVTITCRASQGISSNLAWYQQKPGKAPKLLIYAASSLQSGVPSRFSGSGSGTDFTLTISSLQPEDFATYYCQQANSFPLTFGGGTKVEIK: 280000
- 26D5-GVR-Q-FT-Fab-SHORT: antibody Fab fragment; VH SEQ ID NO: 81, VL SEQ ID NO: 99; sequence in Table 3 (antibody, V domains shown) VH: EVQLVESGGGLIQPGGSLRLSCAASGFTVSRNYMSWVRQAPGKGLEWVSFIYSGGRTYYADSVKGRFTISRDNSKNTLYLQMNSLRAEDTAVYYCARGGFGGGDYWGQGTLVTVSS VL: DIQMTQSPSSVSASVGDRVTITCRASQGISSWLAWYQQKPGKAPKLLIYAASSLQSGVPSRFSGSGSGTDFTLTISSLQPEDFATYYCQQANSFPLTFGGGTKVEIK: 1.6e+06
- 26D5-GVR-Q-FT-Fab-LONG: antibody Fab fragment; VH SEQ ID NO: 81, VL SEQ ID NO: 99; sequence in Table 3 (antibody, V domains shown) VH: EVQLVESGGGLIQPGGSLRLSCAASGFTVSRNYMSWVRQAPGKGLEWVSFIYSGGRTYYADSVKGRFTISRDNSKNTLYLQMNSLRAEDTAVYYCARGGFGGGDYWGQGTLVTVSS VL: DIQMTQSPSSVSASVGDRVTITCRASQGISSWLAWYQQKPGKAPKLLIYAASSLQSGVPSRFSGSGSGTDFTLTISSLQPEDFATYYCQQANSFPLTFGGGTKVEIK: 1.3e+06
- 26D5-295-B08-Fab-LONG: antibody Fab fragment; VH SEQ ID NO: 60, VL SEQ ID NO: 88; sequence in Table 3 (antibody, V domains shown) VH: EVQLVESGGGLIQPGGSLRLSCAASGFTVSSNAMSWVRQAPGKGLEWVSFIYPGGRTYYADSVKGRFTISRDNSKNTLYLQMNSLRAEDTAVYYCARAGFGGGDYWGQGTLVTVSS VL: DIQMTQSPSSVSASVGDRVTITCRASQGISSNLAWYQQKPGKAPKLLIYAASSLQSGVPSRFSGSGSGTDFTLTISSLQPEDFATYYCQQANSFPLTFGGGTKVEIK: 280000
